test system: BJ; assay: Cytotoxicity against human TERT-immortalized human BJ cells at 40 uM/well after 68 hrs by alamar blue assay; format: cell-based
readout name: Activity

Worked set:
Lookup: Provide measured Activity on BJ for `C[C@H](C(=O)Nc1ccc(O)cc1)c1cccc(C(=O)c2ccccc2)c1` please.
Found: Non-toxic

Lookup: Provide measured Activity on BJ for `C[C@H](CNC(=O)NCCc1ccc(O)cc1)c1cccc(C(=O)c2ccccc2)c1` please.
Found: Toxic

Lookup: Provide measured Activity on BJ for `COc1ccc(COC[C@@H](C)c2cccc(C(=O)c3ccccc3)c2)cc1` please.
Found: Non-toxic

Lookup: Provide measured Activity on BJ for `C[C@H](C(=O)NCCc1ccccc1O)c1cccc(C(=O)c2ccccc2)c1` please.
Found: Non-toxic

In the following, a different molecule is considered.
Lookup: Provide measured Activity on BJ for CC(C)Cc1ccc(C(C)C(=O)NCCc2ccc(O)cc2)cc1 (stereo not given) please.
Found: Non-toxic

* * *

system: BJ; assay: Cytotoxicity against human TERT-immortalized human BJ cells at 40 uM/well after 68 hrs by alamar blue assay; assay type: cell-based
readout name: Activity

Worked set:
Lookup: // Input: `COc1ccc(C(=O)NC[C@@H](C)c2cccc(C(=O)c3ccccc3)c2)cc1` . Output its Activity only.
Found: Non-toxic

Lookup: // Input: CC(C(=O)NCCc1ccc(O)cc1)c1cccc(C(=O)c2ccccc2)c1 (racemic) . Output its Activity only.
Found: Non-toxic

Lookup: // Input: `COc1ccccc1CCNC(=O)[C@@H](C)c1cccc(C(=O)c2ccccc2)c1` . Output its Activity only.
Found: Non-toxic

Lookup: // Input: `C[C@H](CNC(=O)Nc1ccc(O)cc1)c1cccc(C(=O)c2ccccc2)c1` . Output its Activity only.
Found: Toxic

Others:
Lookup: // Input: `CCCN(CCc1ccc(O)cc1)C(=O)[C@@H](C)c1cccc(C(=O)c2ccccc2)c1` . Output its Activity only.
Found: Non-toxic

* * *

molecular target: Zinc finger protein GLI1 (Homo sapiens); assay: Inhibition of exogenously transfected human Gli1-mediated transcriptional activity in mouse C3H10T1/2 cells at 40 uM after 24 hrs by luciferase reporter gene assay; assay type: cell-based; settings: C3H 10T1/2
The source made the active and inactive calls. No cut-off for these calls is given here.
Outcome field: choose from active, inactive

Lookup: Record lookup: outcome of this test for `C[C@H](C(=O)NCCc1ccccc1)c1cccc(C(=O)c2ccccc2)c1` ?
Found: active

Lookup: Record lookup: outcome of this test for `COc1ccc(CCNC(=O)[C@@H](C)c2cccc(C(=O)c3ccccc3)c2)cc1O` ?
Found: active

Lookup: Record lookup: outcome of this test for `C[C@H](C(=O)NCc1ccc(O)cc1)c1cccc(C(=O)c2ccccc2)c1` ?
Found: active

Lookup: Record lookup: outcome of this test for `COc1cccc(CCNC(=O)[C@@H](C)c2cccc(C(=O)c3ccccc3)c2)c1` ?
Found: active

Lookup: Record lookup: outcome of this test for `COc1ccc(COC[C@@H](C)c2cccc(C(=O)c3ccccc3)c2)cc1` ?
Found: inactive

Lookup: Record lookup: outcome of this test for `O=C(Cc1c[nH]c2ccc(OCc3ccccc3)cc12)NCCc1ccc(O)cc1` ?
Found: active

Others:
Lookup: Record lookup: outcome of this test for `C[C@H](CNC(=O)NCCc1ccc(O)cc1)c1cccc(C(=O)c2ccccc2)c1` ?
Found: active

Lookup: Record lookup: outcome of this test for `COc1ccc2c(c1)c(CC(=O)NCCc1ccc(O)cc1)c(C)n2C(=O)c1ccc(Cl)cc1` ?
Found: active

* * *

molecular target: Zinc finger protein GLI1 (Homo sapiens) (UniProt P08151); experiment: Inhibition of exogenously transfected human Gli1-mediated transcriptional activity in mouse C3H10T1/2 cells at 20 uM after 24 hrs by luciferase reporter gene assay; type: cell-based; settings: C3H 10T1/2
Sequence (P08151 whole entry): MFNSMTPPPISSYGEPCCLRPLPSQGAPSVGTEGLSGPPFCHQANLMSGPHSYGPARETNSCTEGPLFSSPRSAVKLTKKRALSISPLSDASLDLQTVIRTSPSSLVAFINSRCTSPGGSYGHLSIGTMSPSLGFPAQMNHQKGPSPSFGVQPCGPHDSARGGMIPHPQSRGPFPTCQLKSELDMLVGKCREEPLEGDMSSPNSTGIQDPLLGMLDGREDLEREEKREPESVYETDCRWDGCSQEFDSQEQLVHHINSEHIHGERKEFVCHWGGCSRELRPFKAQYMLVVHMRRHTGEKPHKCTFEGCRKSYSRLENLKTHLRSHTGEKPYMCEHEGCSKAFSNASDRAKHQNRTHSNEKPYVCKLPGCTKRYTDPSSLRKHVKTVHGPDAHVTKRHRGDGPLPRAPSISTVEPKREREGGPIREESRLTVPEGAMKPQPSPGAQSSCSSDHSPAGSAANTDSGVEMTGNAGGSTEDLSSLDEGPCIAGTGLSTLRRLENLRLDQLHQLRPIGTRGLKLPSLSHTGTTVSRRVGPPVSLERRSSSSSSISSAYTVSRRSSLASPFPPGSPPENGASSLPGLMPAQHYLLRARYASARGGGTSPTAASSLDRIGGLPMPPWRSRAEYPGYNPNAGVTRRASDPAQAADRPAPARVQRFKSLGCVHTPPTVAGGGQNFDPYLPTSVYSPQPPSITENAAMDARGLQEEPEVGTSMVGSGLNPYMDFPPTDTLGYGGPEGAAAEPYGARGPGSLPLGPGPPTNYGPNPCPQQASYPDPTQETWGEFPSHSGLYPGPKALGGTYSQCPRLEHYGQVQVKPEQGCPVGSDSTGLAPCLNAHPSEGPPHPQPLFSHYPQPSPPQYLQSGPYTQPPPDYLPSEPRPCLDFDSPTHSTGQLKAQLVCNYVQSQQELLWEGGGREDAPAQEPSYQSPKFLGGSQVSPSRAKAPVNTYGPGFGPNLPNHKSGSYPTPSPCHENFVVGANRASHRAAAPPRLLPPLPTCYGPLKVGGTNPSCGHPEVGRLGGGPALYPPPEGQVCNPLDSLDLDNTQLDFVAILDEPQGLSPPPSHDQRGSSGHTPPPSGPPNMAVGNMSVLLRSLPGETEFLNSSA
Calls of active or inactive are those of the source. The rule behind the calls is not given here.
Outcome field: choose from Yes = active, No = inactive

Lookup: Record lookup: outcome of this test for `COc1ccc(COC[C@@H](C)c2cccc(C(=O)c3ccccc3)c2)cc1` ?
Found: No

Lookup: Record lookup: outcome of this test for `COc1cc(CCNC(=O)[C@@H](C)c2cccc(C(=O)c3ccccc3)c2)ccc1O` ?
Found: Yes

Lookup: Record lookup: outcome of this test for `C[C@H](C(=O)Nc1ccc(O)cc1)c1cccc(C(=O)c2ccccc2)c1` ?
Found: Yes

Lookup: Record lookup: outcome of this test for `COc1cccc(CCNC(=O)[C@@H](C)c2cccc(C(=O)c3ccccc3)c2)c1` ?
Found: Yes

Lookup: Record lookup: outcome of this test for `C[C@H](C(=O)NCc1ccc(O)cc1)c1cccc(C(=O)c2ccccc2)c1` ?
Found: Yes

Others:
Lookup: Record lookup: outcome of this test for `C[C@H](COC(=O)NCCc1ccc(O)cc1)c1cccc(C(=O)c2ccccc2)c1` ?
Found: Yes

Lookup: Record lookup: outcome of this test for `C[C@H](C(=O)NCCc1ccccc1)c1cccc(C(=O)c2ccccc2)c1` ?
Found: Yes

Lookup: Record lookup: outcome of this test for `COCCN(CCc1ccc(O)cc1)C(=O)[C@@H](C)c1cccc(C(=O)c2ccccc2)c1` ?
Found: Yes

Lookup: Record lookup: outcome of this test for `CCCN(CCc1ccc(O)cc1)C(=O)[C@@H](C)c1cccc(C(=O)c2ccccc2)c1` ?
Found: Yes

Lookup: Record lookup: outcome of this test for `COc1ccc2cc([C@H](C)C(=O)NCCc3ccc(O)cc3)ccc2c1` ?
Found: Yes

Lookup: Record lookup: outcome of this test for `C[C@H](C(=O)NCCc1ccc(Cl)cc1)c1cccc(C(=O)c2ccccc2)c1` ?
Found: Yes

Lookup: Record lookup: outcome of this test for `COc1ccccc1CCNC(=O)[C@@H](C)c1cccc(C(=O)c2ccccc2)c1` ?
Found: Yes

Lookup: Record lookup: outcome of this test for `C[C@H](CNC(=O)c1ccc(O)cc1)c1cccc(C(=O)c2ccccc2)c1` ?
Found: Yes

* * *

molecular target: Zinc finger protein GLI1 (Homo sapiens); assay: Inhibition of exogenously transfected human Gli1-mediated transcriptional activity in mouse C3H10T1/2 cells at 40 uM after 24 hrs by luciferase reporter gene assay; format: cell-based; conditions: C3H 10T1/2
The source made the active and inactive calls. No cut-off for these calls is given here.
readout name: inhibition

Worked set:
Lookup: Provide measured inhibition on Zinc finger protein GLI1 (Homo sapiens) for `COc1cc(CCNC(=O)[C@@H](C)c2cccc(C(=O)c3ccccc3)c2)ccc1O` please.
Found: Active

Lookup: Provide measured inhibition on Zinc finger protein GLI1 (Homo sapiens) for `C[C@H](C(=O)NCCc1ccc(Cl)cc1)c1cccc(C(=O)c2ccccc2)c1` please.
Found: Active

Lookup: Provide measured inhibition on Zinc finger protein GLI1 (Homo sapiens) for `COc1ccccc1CCNC(=O)[C@@H](C)c1cccc(C(=O)c2ccccc2)c1` please.
Found: Active

Lookup: Provide measured inhibition on Zinc finger protein GLI1 (Homo sapiens) for `COc1ccc(C(=O)NC[C@@H](C)c2cccc(C(=O)c3ccccc3)c2)cc1` please.
Found: Active

Others:
Lookup: Provide measured inhibition on Zinc finger protein GLI1 (Homo sapiens) for `C[C@H](COC(=O)NCCc1ccc(O)cc1)c1cccc(C(=O)c2ccccc2)c1` please.
Found: Active

Lookup: Provide measured inhibition on Zinc finger protein GLI1 (Homo sapiens) for `C[C@H](CNC(=O)CCc1ccc(O)cc1)c1cccc(C(=O)c2ccccc2)c1` please.
Found: Active

Lookup: Provide measured inhibition on Zinc finger protein GLI1 (Homo sapiens) for `C[C@H](CNC(=O)Nc1ccc(O)cc1)c1cccc(C(=O)c2ccccc2)c1` please.
Found: Active
